B1: Homeobox protein cut-like 1, residues 548 to 629; numbered along this chain, P39880 (parent)
chain: GEEMDTAEIARQVKEQLIKHNIGQRIFGHYVLGLSQGSVSEILARPKPWNKLTVRGKEPFHKMKQFLSDEQNILALRSIQGR

variants of: B1; experiment: abundance fitness (aPCA) (normalised: wild type 0, dead -1); higher = more abundant; growth selection in yeast, the domain comes from the species named; conditions: Homo sapiens
metric: abundance fitness
Just the number, please.

Note to self: abundance fitness recorded for `G37R` was 0.029

Noted for `R11T` : its abundance fitness reads -0.131

Per the records, this variant ( `G28R` ) has abundance fitness equal to -0.52

The measured abundance fitness associated with `E8A` reads -0.118

Noted for `L34M` : its abundance fitness reads 0.09

Given item `I79A` , the value recorded as its abundance fitness is -0.047

// recorded abundance fitness for `Q71E` : 0.06

Sure, the documented abundance fitness for `H20K` is -0.391

For record `Q80V` the listed abundance fitness is 0

Record summary for `R55M` : reported abundance fitness = -0.028

Measured abundance fitness of `Y30C` : -0.065

Record `V54E` , field abundance fitness: 0.136

// abundance fitness lookup, variant = `R25P` , result: -0.068

Lookup result for `P59D` ; measured abundance fitness: 0.047

`G56R` yielded abundance fitness of -0.711

Entry `D69I` ; abundance fitness = -0.425

Summary for this variant, `R82M` : abundance fitness is -0.047

Entry under test: `A75C` . Its abundance fitness was -0.11

Just so you know, measured abundance fitness for `Q65I` came out at -0.096

Entry under test: `A10I` . Its abundance fitness was -0.249

Entry under test: `K62S` . Its abundance fitness was -0.443

Record summary for `A7Q` : reported abundance fitness = -0.028
